Biological target: Relaxin receptor 1 (Homo sapiens)
Experiment: qHTS Assay for Antagonists of the Relaxin Receptor RXFP1; note: % is set by controls: 0 for no effect and ±100 for the full control effect
Conditions: HEK293-RXFP1, relaxin-stimulated cAMP HTRF, 30 min; at 57.5 µM
About 2,100 (0.6%) of roughly 350,000 compounds were called active. Not shown: some 1% with an inconclusive outcome.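 Rule for the calls: active = activity change of -60% or lower, but not beyond a set lower limit; inconclusive = change between -60% and -40%, or beyond the set limit; inactive = change above -40%.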 This excerpt belongs to a sample that is enriched for actives.
Answer with one of the outcomes 1.0 = active, 0.0 = inactive

Before answering, review these 5 worked examples.
> print(dat)
                                   molecule                      system.tested  class.label
1            CC(C)(C)NCc1cc(Br)ccc1OC1CCCC1  Relaxin receptor 1 (Homo sapiens)          0.0
2  CC(NCc1ccccc1OC1CCCC1)c1ccccc1 (stereo unspecified)  Relaxin receptor 1 (Homo sapiens)          1.0
3  Cc1nnnn1/C(=C\c1ccccc1)C(=O)OCC(=O)N1CC2(C)CC1CC(C)(C)C2 (stereo unspecified)  Relaxin receptor 1 (Homo sapiens)          1.0
4  COc1ccc(C2Sc3ccccc3NC3=C2C(=O)c2ccccc23)c(OC)c1OC (stereo unspecified)  Relaxin receptor 1 (Homo sapiens)          0.0
5  CN(C)C(=O)COC(=O)c1cccc(S(=O)(=O)N2CC3(C)CC2CC(C)(C)C3)c1 (stereo unspecified)  Relaxin receptor 1 (Homo sapiens)          0.0

## Input Record request — test call for Cc1ccc(C2c3[nH]c4ccccc4c3CCN2C(=O)c2cccc(C)c2)cc1 (stereo unspecified)
## Output 0.0

* * *

Molecular target: Relaxin receptor 1 (Homo sapiens)
Assay: qHTS Assay for Antagonists of the Relaxin Receptor RXFP1; note: % is set by controls: 0 for no effect and ±100 for the full control effect
Settings: HEK293-RXFP1, relaxin-stimulated cAMP HTRF, 30 min; at 57.5 µM
Hit rate of the full screen: of about 350,000 compounds, about 2,100 (0.6%) were called active. Another 1% or so got no clear call; they are omitted.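 Rule for the calls: active = activity change of -60% or lower, but not beyond a set lower limit; inconclusive = change between -60% and -40%, or beyond the set limit; inactive = change above -40%.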 Only a selection was taken, and actives are over-represented in it overall.
// allowed return values: YES = active, NO = inactive

> print(dat)
                                   compound                      system.tested  class.label
1  Cc1ccc(C2CCN(C(=O)c3cnn(-c4ccccc4Cl)c3C3CCN(C(=O)OC(C)(C)C)CC3)C2)cc1 (configuration not stated)  Relaxin receptor 1 (Homo sapiens)          YES
2  CCOC(=O)c1c(NC(C)=O)c2c3c(sc2n1Cc1c(C)cc(C)cc1C)CCCC3  Relaxin receptor 1 (Homo sapiens)          YES
3  O=C(CCS(=O)(=O)c1cc(Br)cc2c1N(C(=O)C1CC1)CC2)Nc1ccc(Br)cc1F  Relaxin receptor 1 (Homo sapiens)           NO
4  COc1ccc(Cn2ccnc2SCC(=O)Nc2ccc3c(c2)OCO3)cc1  Relaxin receptor 1 (Homo sapiens)           NO
5  O=C(NCC(c1ccc(Cl)cc1)N1CCOCC1)c1ccccc1F (configuration not stated)  Relaxin receptor 1 (Homo sapiens)           NO
6        Cn1cnnc1SCC(=O)Nc1ccc(N2CCOCC2)cc1  Relaxin receptor 1 (Homo sapiens)           NO

## Input Field: outcome | Entry: `COC(=O)c1cc(Cl)c(NC(C)=O)cc1OC`
## Output NO

## Input For `Cc1ccc(CN2CCC(CNC(=O)c3cnn(-c4ccccc4Cl)c3C3CCN(C(=O)OC(C)(C)C)CC3)CC2)cc1` , which call appears in the assay record?
## Output NO

## Input Each compound tested received a call. Report the one for `COC(=O)c1c(NC(=O)c2cc(=O)c3c(C)cc(C)cc3o2)sc2c1CCCC2` .
## Output NO

* * *

Target: Relaxin receptor 1 (Homo sapiens) (UniProt Q9HBX9)
Sequence (Q9HBX9 whole entry, looked up): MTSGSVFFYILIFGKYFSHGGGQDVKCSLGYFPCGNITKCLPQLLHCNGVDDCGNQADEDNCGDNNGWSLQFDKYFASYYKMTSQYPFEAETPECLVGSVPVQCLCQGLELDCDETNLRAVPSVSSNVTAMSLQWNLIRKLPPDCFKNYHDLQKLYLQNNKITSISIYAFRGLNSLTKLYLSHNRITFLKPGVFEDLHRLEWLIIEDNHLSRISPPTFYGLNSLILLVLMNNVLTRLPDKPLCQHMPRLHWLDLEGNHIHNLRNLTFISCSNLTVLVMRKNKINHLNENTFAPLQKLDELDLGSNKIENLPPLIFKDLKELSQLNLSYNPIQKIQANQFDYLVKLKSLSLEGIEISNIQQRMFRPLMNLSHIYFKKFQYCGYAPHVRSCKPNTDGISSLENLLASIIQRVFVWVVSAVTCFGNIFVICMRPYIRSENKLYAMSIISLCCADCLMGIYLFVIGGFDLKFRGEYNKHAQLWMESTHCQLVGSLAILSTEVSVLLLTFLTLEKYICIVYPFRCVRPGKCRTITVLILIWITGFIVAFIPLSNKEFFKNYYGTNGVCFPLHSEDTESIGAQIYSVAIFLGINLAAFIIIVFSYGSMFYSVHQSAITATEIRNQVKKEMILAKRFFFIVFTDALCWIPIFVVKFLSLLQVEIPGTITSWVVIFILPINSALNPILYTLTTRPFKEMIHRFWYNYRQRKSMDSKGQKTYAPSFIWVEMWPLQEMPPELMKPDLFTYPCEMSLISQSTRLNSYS
Test: qHTS Assay for Antagonists of the Relaxin Receptor RXFP1; note: % is set by controls: 0 for no effect and ±100 for the full control effect
Conditions: HEK293-RXFP1, relaxin-stimulated cAMP HTRF, 30 min; at 57.5 µM; stronger effect = lower value
Hit rate of the full screen: of about 350,000 compounds, about 2,100 (0.6%) were called active. Another 1% or so got no clear call; they are omitted. The sample as a whole holds a higher share of actives than the screen did.
Define the label as yes when activity change, negative = inhibition is strictly less than -10% and as no in all remaining cases.

Example results:
> print(dat)
                                   compound  class.label
1  C#CCOc1ccc(/C=C2/C(=O)NN(c3ccccc3)C2=O)cc1OC          yes
2  COc1ccc(CNC(=O)c2ccc(NC(=O)N3CC4CCCN4c4ccccc43)cc2)cc1 (stereo not given)           no
3  COc1cc(/C=C2/C(=O)NN(c3ccc(F)cc3)C2=O)cc([N+](=O)[O-])c1O          yes
4  CC(=O)c1ccc(N2CCN(c3nc4c(S(=O)(=O)c5ccccc5)nnn4c4ccc(Cl)cc34)CC2)cc1          yes

As a next step, examine the compound that follows.
## Input Quick check: activity change, negative = inhibition of `CCc1nnc(SCc2c(F)cccc2Cl)c2cc3sccc3n12` under -10%?
## Output no

* * *

Below: a set of entries, each annotated with reported activity change, negative = inhibition.
Molecular target: Relaxin receptor 1 (Homo sapiens) (UniProt Q9HBX9)
Assay: qHTS Assay for Antagonists of the Relaxin Receptor RXFP1; note: % is set by controls: 0 for no effect and ±100 for the full control effect
Details: HEK293-RXFP1, relaxin-stimulated cAMP HTRF, 30 min; at 57.5 µM; stronger effect = lower value
Among all 350,000 compounds or so, about 2,100 (0.6%) were called active. Not shown: some 1% with an inconclusive outcome. Shown is part of a subset that was picked to be rich in actives.
Numbers only; they are read as %.

> print(dat)
                                   compound                             system.tested                              observable  quantity.unit  assay.value
1  CN1CCc2ccccc2C1Cc1ccccc1NC(=O)c1sc2ccccc2c1Cl (configuration not stated)  Relaxin receptor 1 (Homo sapiens) (UniProt Q9HBX9)  activity change, negative = inhibition              %         5.13

## Input Tell me measured activity change, negative = inhibition for `Cc1cc(C)c2oc(C(=O)Nc3ccc(S(=O)(=O)N(C)c4ccccc4)cc3)cc(=O)c2c1` please.
## Output -2.14

## Input Indicate the recorded activity change, negative = inhibition value for this compound: `O=C(Nc1ccccc1Cl)N1CCC(CN2CCCC2)CC1`
## Output 2.65

## Input Indicate the recorded activity change, negative = inhibition value for this compound: `Cc1nn(C)cc1/C=N/NC(=O)c1sc2ccccc2c1Cl`
## Output -67.1

## Input Using known records, supply activity change, negative = inhibition for `Cc1ccc(NC(=O)c2ccco2)cc1`
## Output -9.99

## Input Quote activity change, negative = inhibition reported for `O=C(COC(=O)c1ccc(Oc2ccccc2)cc1)Nc1nnc(-c2ccccc2)o1` please.
## Output -76.2

## Input Hello, please tell me recorded activity change, negative = inhibition for this one: `O=C(NCCN1CCOCC1)c1ccc2c(c1)N(Cc1cccc(Cl)c1)C(=O)c1ccccc1S2(=O)=O`
## Output 2.8

## Input For Cc1cc(NC(=O)CSCC(=O)NC(C)c2ccccc2)no1 (configuration not stated) , write its activity change, negative = inhibition.
## Output 3.67

## Input Assign activity change, negative = inhibition to the following record: `CC(C)OC(=O)c1ccc(NCc2cc(O)ccc2O)cc1Cl`
## Output -85.7

## Input Give me measured activity change, negative = inhibition, please, for this compound: `Cc1cc(NC(=O)CSc2nnc(-c3ccc(Cl)s3)o2)no1`
## Output -21

## Input Annotate the compound `O=C(OC12CC3CC(CC(C3)C1)C2)c1ccc(NCc2cc(O)ccc2O)cc1` with its measured activity change, negative = inhibition.
## Output -37.9

## Input Specify activity change, negative = inhibition for `CC(=O)Nc1cccc(C(=O)OCC(=O)Nc2nnc(-c3ccccc3)o2)c1` and stop.
## Output -4.64

## Input Quote activity change, negative = inhibition reported for `COc1ccccc1C(=O)NCC(=O)OCC(=O)Nc1nnc(-c2ccccc2)o1` please.
## Output -0.478

## Input Look up and state reported activity change, negative = inhibition for `Cc1nn(-c2ccccc2)c(Cl)c1/C=N/NC(=O)c1nn(C)cc1[N+](=O)[O-]`
## Output -8.41

## Input Respond only with activity change, negative = inhibition recorded for `O=S(=O)(NCCS(=O)(=O)N1CCN(c2ccccc2)CC1)c1ccc(Cl)cc1`
## Output -36.9

## Input Dear colleague, please send me the reported activity change, negative = inhibition for `O=C(NCCN1CCOCC1)c1ccc(/C=C2\Sc3ccccc3N(Cc3ccc(F)cc3)C2=O)cc1` when you can.
## Output -82.1

## Input Please list activity change, negative = inhibition recorded for the compound `CCc1nnc(NC(=O)c2ccco2)s1`
## Output 0.195

## Input Write down activity change, negative = inhibition measured for item `Cc1ccc(-c2nc3ccccn3c2Nc2c(C)cccc2C)o1`
## Output -10.4

## Input Identify measured activity change, negative = inhibition associated with `COC(=O)c1ccc(NCc2cc(O)ccc2O)cc1`
## Output -28.1

## Input Tell me activity change, negative = inhibition reported for `COc1cc(OC)c(OC)cc1/C=C/c1nc2ccccc2c(=O)n1-c1ccc(Br)c(C)c1`
## Output -16.8

## Input # return recorded activity change, negative = inhibition for input `COc1ccccc1Nc1c2c(nc3ccc(NC(=O)/C=C/c4cc(OC)c(OC)c(OC)c4)cc13)CCCC2`
## Output 5.51

## Input For the compound `O=C(CCN1CCN(C/C=C/c2ccccc2)CC1)Nc1ccccc1Cl` , give its reported activity change, negative = inhibition.
## Output 3.3
